Values compiled from patent US6495313B2.

- experiment: pKa of cyan coupler by pH titration (half-neutralization point)
- Type: physicochemical
- stated_conditions: tetrahydrofuran/water 6/4 by volume, solvent mixture of tetrahydrofuran and water 6/4 by volume
measurement_type: pKa
Answers are plain numbers.

CCCCCCCCCCCCc1ccc(S(=O)(=O)c2cc(C(=O)NCCc3ccccc3NC(C)=O)c(O)c3ccccc23)cc1 [Sample C-8] | 6.02

Query: What value of pKa has been reported for the following compound? CCCCCCCCCCCCCCCCNC(=O)c1cc(OCCS(C)(=O)=O)c2ccccc2c1O [Sample C-4, reference compound]
Reply: 10.3
